Data provenance is PubChem BioAssay AID1963871.

- Tested on: KRAS-mutant PDC multicell tumor spheroid viability;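 note: viability read after seven days of drug exposure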
- EXPERIMENT NOTES: Anticancer human tumor 521955-158-R2-J5-PDC patient-derived pancreatic carcinoma cell line growth inhibition [KRAS2]
- MEASUREMENT SETUP: second compound 0.316 µM; first compound 0.0316 µM; active compounds read low
- Text: Multicellular complex tumor spheroid response to RAS pathway inhibitors in combination with a targeted agents in patient-derived cell lines with oncogenic KRAS variants from multiple cancer types A high-throughput screen of multi-cell type tumor spheroids was designed to identify active combinations of targeted small molecules and KRAS pathway inhibitors. […] Compounds. […] If the clinical Cmax for an agent had not been determined, the highest concentration tested was 10 microM. […]
Labels assigned by viability, T/C range: lowest (below 50%), middle (50% to below 90%), highest (90% or more)

Check out these entries, answers already filled in.
For CCNC(=O)CC1N=C(c2ccc(Cl)cc2)c2cc(OC)ccc2-n2c(C)nnc21 (centres undefined) + CC1OCC2(CCN(c3cnc(Sc4ccnc(N)c4Cl)c(N)n3)CC2)C1N , which viability, T/C bin applies? middle

For Cn1nccc1Nc1nccc(-c2cc3c(s2)C(C)(C)N(CCN2CCOCC2)C3=O)n1 + COc1cc2nc(C)nc(NC(C)c3cc(N)cc(C(F)(F)F)c3)c2cc1OC1CCOC1 , which viability, T/C bin applies? highest

For Cn1ncnc1[C@H]1c2n[nH]c(=O)c3cc(F)cc(c23)N[C@@H]1c1ccc(F)cc1 + CC1OCC2(CCN(c3cnc(Sc4ccnc(N)c4Cl)c(N)n3)CC2)C1N , which viability, T/C bin applies? lowest

New cases:
For CN(C)C/C=C/C(=O)Nc1cc2c(Nc3ccc(F)c(Cl)c3)ncnc2cc1O[C@H]1CCOC1 + CNCc1ccccc1-c1csc(C(C)Nc2nc(C)nc3cc(OC)c(OC)cc23)c1 , which viability, T/C bin applies? highest

For CN(C)C/C=C/C(=O)Nc1cc2c(Nc3ccc(F)c(Cl)c3)ncnc2cc1O[C@H]1CCOC1 + COc1cc2nc(C)nc(NC(C)c3cc(N)cc(C(F)(F)F)c3)c2cc1OC1CCOC1 , which viability, T/C bin applies? middle

For CCN1CCN(Cc2ccc(Nc3ncc(F)c(-c4cc(F)c5nc(C)n(C(C)C)c5c4)n3)nc2)CC1 + COc1cc2nc(C)nc(NC(C)c3cc(N)cc(C(F)(F)F)c3)c2cc1OC1CCOC1 , which viability, T/C bin applies? middle
